Items are presented alongside their recorded FACS fluorescence.
Biological target: T1, mouse Claudin-6 (CLDN6) (mouse, UniProt Q9Z262 1-219)
T1 construct: whole, on cells; GFP fusion on engineered HEK293T cells; also called Mouse CLDN6; murine CLDN6
T1 sequence (looked up): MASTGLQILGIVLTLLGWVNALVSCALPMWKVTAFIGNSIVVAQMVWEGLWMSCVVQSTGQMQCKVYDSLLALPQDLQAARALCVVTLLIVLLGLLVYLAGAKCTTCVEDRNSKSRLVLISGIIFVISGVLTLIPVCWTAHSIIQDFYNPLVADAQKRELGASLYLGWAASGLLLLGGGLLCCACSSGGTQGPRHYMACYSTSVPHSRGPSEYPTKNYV
Assay: FACS, 293T clone expressing mouse CLDN6, dose not stated (2nd Ab only 1061.72)
Method: Two doses (1.5 μg or 0.3 μg) of the humanized antibodies were tested for binding to either human CLDN6 or murine CLDN6 which proteins were expressed by engineered 293T clones.
Form field (numeric): enter value without unit.

Record excerpt, results attached:
- Binder: "AB3-chim (antibody, V domains shown) VH: EVKLEESGGGLVQPGGSMKLSCVASGFTFSNYWMNWVRQSPEKGLEWVAQIRLKSDNYATHYAESVKGRFTISRDDSKRSVYLQMNNLRAEDTGTYYCNDGPPSGCWGQGTTLIVSS VL: DIQMTQSPASLSASVGETVTITCRISENIYSYLAWYQQKQGKSPQLLVYNAKILVEGVPSRFSGSGSGTQFSLKINSLQPEDFGNYYCQHHYTVPWTFGGGTKLEIK"
  Assay Metric: "FACS fluorescence"
  Measured Value: 67900
- Binder: "AB3-7 (antibody, V domains shown, humanized; also called AB23; humanized AB3-7) VH: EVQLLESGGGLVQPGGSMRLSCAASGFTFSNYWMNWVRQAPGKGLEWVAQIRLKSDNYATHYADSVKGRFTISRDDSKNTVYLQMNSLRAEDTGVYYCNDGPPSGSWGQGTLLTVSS VL: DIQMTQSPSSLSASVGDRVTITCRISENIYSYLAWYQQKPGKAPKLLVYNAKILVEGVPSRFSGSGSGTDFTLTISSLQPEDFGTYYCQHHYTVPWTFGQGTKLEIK"
  Assay Metric: "FACS fluorescence"
  Measured Value: 56100
- Binder: "AB4-chim (antibody, V domains shown) VH: QVQLQQSGAELARPGASVKMSCKASGYTFTSYTMHWIKQRPGQGQEWIGYINPSSTYTHYIKKFKDKATLTADKSSSTAYMQLRSLTSEDSAVYYCSRGELGGFAYWGQGTLVTVSA VL: DVVMTQTPLSLPVSLGDQASISCRSSQSLVHSDGNTYLNWYLQKPGQSPKLLIYKVSNRFSGVPDRFSGSGSGTDFTLKIRRVEAEDLGVYFCSQSTHVPYTFGGGTKLEIK"
  Assay Metric: "FACS fluorescence"
  Measured Value: 3640

Please look at the following binder next.
Can you look up the measured FACS fluorescence of AB1-7 (antibody, V domains shown, humanized) VH: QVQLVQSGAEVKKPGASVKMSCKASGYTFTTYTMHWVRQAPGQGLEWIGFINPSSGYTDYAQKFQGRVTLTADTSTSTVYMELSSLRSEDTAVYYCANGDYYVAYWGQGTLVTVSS VL: DIQLTQSPSSLSASVGDRVTMTCTASSSVSSTYFHWYQQKPGKAPKLLIYSTSNLASGVPSRFSGSGSGTDYTLTISSMQPEDAATYYCHQYHRSPLTFGQGTKLEIK for me? 99700
